Test system: RAW-Dual (murine macrophage reporter line)
ASSAY_REMARKS: NF-kB reporter (SEAP) activity fold change vs agonist alone; higher = enhanced NF-kB activity
TEST_CONDITIONS: modulator concentration 10 µM; agonist: MPLA […]
Known NF-kB reporter of a selection of molecules
REPORTED_PROPERTY: NF-kB reporter

>>> df
                                   molecule  reported_property  observed_value
0    O=C(NN=Cc1c(Br)sc2ccccc12)c1cccc(Cl)c1     NF-kB reporter            1.18
1  O=C(CSC1CC(=O)N(c2ccc(C(=O)O)cc2)C1=O)Nc1ccc(F)cc1 (stereo not given)     NF-kB reporter            1.52
2  O=C(O[C@@H]1C[C@@H]2C[C@@H]3C[C@H](C1)N2CC3=O)c1c[nH]c2ccccc12     NF-kB reporter           0.697
3  Cl.Cl.O=C(O)COCCN1CCN([C@H](c2ccccc2)c2ccc(Cl)cc2)CC1     NF-kB reporter            1.01
4  Cc1cccc(NC(=O)Cc2c(C)nc(SCc3ccccc3F)[nH]c2=O)c1C     NF-kB reporter            1.03
